Origin of values: patent US9828379B2

- System: FAAH (Mus musculus, UniProt O08914)
- Sequence (O08914 whole entry): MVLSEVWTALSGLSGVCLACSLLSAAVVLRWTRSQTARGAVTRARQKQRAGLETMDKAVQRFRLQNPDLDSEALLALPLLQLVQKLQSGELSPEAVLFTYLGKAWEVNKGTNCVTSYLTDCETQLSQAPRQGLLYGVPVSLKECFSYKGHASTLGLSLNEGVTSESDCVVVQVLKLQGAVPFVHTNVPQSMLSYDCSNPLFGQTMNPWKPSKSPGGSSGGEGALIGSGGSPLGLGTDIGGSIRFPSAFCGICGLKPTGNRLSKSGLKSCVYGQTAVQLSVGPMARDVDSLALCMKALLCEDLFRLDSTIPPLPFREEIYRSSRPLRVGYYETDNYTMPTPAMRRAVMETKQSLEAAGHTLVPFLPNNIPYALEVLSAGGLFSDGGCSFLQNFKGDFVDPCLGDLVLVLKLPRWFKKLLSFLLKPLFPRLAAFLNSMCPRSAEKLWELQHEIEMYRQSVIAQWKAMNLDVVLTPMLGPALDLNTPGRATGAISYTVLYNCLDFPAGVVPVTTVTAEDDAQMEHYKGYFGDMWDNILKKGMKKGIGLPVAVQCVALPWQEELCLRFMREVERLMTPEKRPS
- Assay method text: In vitro competitive activity-based protein profiling (Table 2, % inhibition at 1 μM)
- Format: biochemical
- Test parameters: read-out: % Inhibition at 1 μM FAAH
- Procedure: After 30 min, FP—Rh (1.0 μL, 50 μM in DMSO) was added and the mixture was incubated for another 30 min at 37° C. Reactions were quenched with SDS loading buffer (50 μL-4×) and run on SDS-PAGE. Following gel imaging, serine hydrolase activity was determined by measuring fluorescent intensity of gel bands corresponding to MAGL, ABHD6 and FAAH using ImageJ 1.43 u software. […]
# inhibition at 1 µM per record follows

Cc1cc(CN2CC3CN(C(=O)ON4C(=O)CCC4=O)CC3C2)n(C(C)C)n1 (stereo not drawn) [Example 121] :: < 25%
Cc1cc(CN2CC3CN(C(=O)OC(C(F)(F)F)C(F)(F)F)CC3C2)n(C(C)C)n1 (stereo not drawn) [Example 59] :: 25 to 75%
CC(C)n1cc(CN2CC3CN(C(=O)ON4C(=O)CCC4=O)CC3C2)c(C2CCN(S(C)(=O)=O)CC2)n1 (stereo not drawn) [Example 120] :: < 25%

Exercise: Indicate its recorded inhibition at 1 µM; the compound in question is CC(C)n1cc(CN2CC3CN(C(=O)OC(C(F)(F)F)C(F)(F)F)CC3C2)c(-c2cccc(Cl)c2)n1 (stereo not drawn) [Example 174]
Solution: < 25%

Exercise: Indicate its recorded inhibition at 1 µM; the compound in question is Cn1nc(-c2cccc(F)c2)cc1CN1CC2CN(C(=O)OC(C(F)(F)F)C(F)(F)F)CC2C1 (stereo not drawn) [Example 195]
Solution: < 25%

Exercise: Indicate its recorded inhibition at 1 µM; the compound in question is CS(=O)(=O)N1CCN(c2cc(Cl)ccc2CN2CC3CN(C(=O)ON4C(=O)CCC4=O)CC3C2)CC1 (stereo not drawn) [Example 110]
Solution: < 25%

Exercise: Indicate its recorded inhibition at 1 µM; the compound in question is CCn1cc(CN2CC3CN(C(=O)OC(C(F)(F)F)C(F)(F)F)CC3C2)c(-c2ccc(N3CCCC3)cc2)n1 (stereo not drawn) [Example 67]
Solution: < 25%

Exercise: Indicate its recorded inhibition at 1 µM; the compound in question is CCn1cc(CN2CC3CN(C(=O)OC(C(F)(F)F)C(F)(F)F)CC3C2)c(-c2ccc(N3CCC3)cc2)n1 (stereo not drawn) [Example 69]
Solution: < 25%

###

# inhibition at 1 µM per record follows
- System: ABHD6 (Mus musculus, UniProt Q8R2Y0)
- Sequence (Q8R2Y0 whole entry): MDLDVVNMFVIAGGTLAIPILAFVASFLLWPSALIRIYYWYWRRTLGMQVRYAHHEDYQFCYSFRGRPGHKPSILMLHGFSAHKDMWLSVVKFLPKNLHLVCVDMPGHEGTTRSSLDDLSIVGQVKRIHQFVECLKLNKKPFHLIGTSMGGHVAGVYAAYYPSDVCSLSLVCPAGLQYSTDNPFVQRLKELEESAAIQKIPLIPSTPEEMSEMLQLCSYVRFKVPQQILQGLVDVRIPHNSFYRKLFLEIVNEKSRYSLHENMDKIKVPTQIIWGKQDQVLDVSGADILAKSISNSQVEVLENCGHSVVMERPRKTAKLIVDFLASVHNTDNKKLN
- Assay method text: In vitro competitive activity-based protein profiling (Table 2, % inhibition at 1 μM)
- Format: biochemical
- Test parameters: read-out: % Inhibition at 1 μM ABHD6

Check out these entries, answers already filled in.
Cc1cccc(-c2cc(CN3CC4CN(C(=O)ON5C(=O)CCC5=O)CC4C3)n(C)n2)c1 (stereo not drawn) [Example 199] :: < 25%
O=C(OC(C(F)(F)F)C(F)(F)F)N1CC2CN(Cc3cccc(Cl)c3N3CCC4(CCOC4)C3)CC2C1 (stereo not drawn) [Example 42] :: < 25%
CC(=O)N1CCN(c2cc(C(C)C)ccc2CN2CC3CN(C(=O)ON4C(=O)CCC4=O)CC3C2)CC1 (stereo not drawn) [Example 99] :: < 25%
CC(=O)N1CCN(c2cccc(CN3CC4CN(C(=O)OC(C(F)(F)F)C(F)(F)F)CC4C3)c2C)CC1 (stereo not drawn) [Example 152] :: 25 to 75%
O=C(OC(C(F)(F)F)C(F)(F)F)N1CC2CN(Cc3cccc(-c4ccccc4)c3)CC2C1 (stereo not drawn) [Example 13] :: < 25%
O=C(OC(C(F)(F)F)C(F)(F)F)N1CC2CN(Cc3cccc(Cl)c3N3CCOCC3)CC2C1 (stereo not drawn) [Example 44] :: < 25%

Exercise: Indicate its recorded inhibition at 1 µM; the compound in question is Cc1c(CN2CC3CN(C(=O)OC(C(F)(F)F)C(F)(F)F)CC3C2)cccc1N1C2CCC1COC2 (stereo not drawn) [Example 127]
Solution: 25 to 75%

Exercise: Indicate its recorded inhibition at 1 µM; the compound in question is CC(=O)N1CCC(n2nc(C)cc2CN2CC3CN(C(=O)OC(C(F)(F)F)C(F)(F)F)CC3C2)CC1 (stereo not drawn) [Example 60]
Solution: < 25%

Exercise: Indicate its recorded inhibition at 1 µM; the compound in question is Cc1cc(CN2CC3CN(C(=O)ON4C(=O)CCC4=O)CC3C2)n(C(C)C)n1 (stereo not drawn) [Example 121]
Solution: < 25%

Exercise: Indicate its recorded inhibition at 1 µM; the compound in question is CC(=O)NC1CCN(c2cccc(CN3CC4CN(C(=O)OC(C(F)(F)F)C(F)(F)F)CC4C3)c2C)CC1 (stereo not drawn) [Example 151]
Solution: 25 to 75%

Exercise: Indicate its recorded inhibition at 1 µM; the compound in question is CC1COCCN1c1ccc(CN2CC3CN(C(=O)ON4C(=O)CCC4=O)CC3C2)c(F)c1 (stereo not drawn) [Example 100]
Solution: < 25%

Exercise: Indicate its recorded inhibition at 1 µM; the compound in question is CS(=O)(=O)N1CCN(c2cc(Cl)ccc2CN2CC3CN(C(=O)OC(C(F)(F)F)C(F)(F)F)CC3C2)CC1 (stereo not drawn) [Example 36]
Solution: 25 to 75%

Exercise: Indicate its recorded inhibition at 1 µM; the compound in question is CC(=O)N1CCC(c2nn(C(C)C)cc2CN2CC3CN(C(=O)OC(C(F)(F)F)C(F)(F)F)CC3C2)CC1 (stereo not drawn) [Example 55]
Solution: < 25%

Exercise: Indicate its recorded inhibition at 1 µM; the compound in question is O=C(OC(C(F)(F)F)C(F)(F)F)N1CC2CN(Cc3cccc(Cl)c3N3C4CCC3COC4)CC2C1 (stereo not drawn) [Example 43]
Solution: < 25%

Exercise: Indicate its recorded inhibition at 1 µM; the compound in question is Cc1cccc(CN2CC3CN(C(=O)ON4C(=O)CCC4=O)CC3C2)c1N1CCCCC1 (stereo not drawn) [Example 105]
Solution: < 25%
